species on record: Rattus norvegicus; test: DrugMatrix - Regimen: Daily Repeat; assay type: toxicity, organism-based, Sprague-Dawley; parameters: regimen Daily Repeat, gender Male, age 6-8 weeks; details: in vivo, po, 0 mg/kg, 120 h, tissue Plasma, route oral GAVAGE, dose level Control, time 5 day, […]

# compound, ALANINE AMINOTRANSFERASE / u/L
rows = [
    ("CC(C)(C)NC(=O)[C@H]1CC[C@H]2[C@@H]3CC[C@H]4NC(=O)C=C[C@]4(C)[C@H]3CC[C@]12C [FINASTERIDE]", 75.67),
    ("COc1cc(N)c(Cl)cc1C(=O)NC1CCN(CCCOc2ccc(F)cc2)CC1OC (centres undefined) [CISAPRIDE]", 68.83),
    ("Clc1ccc(COC(Cn2ccnc2)c2ccc(Cl)cc2Cl)cc1 (centres undefined) [ECONAZOLE]", 59.67),
    ("CO[C@H]1/C=C/O[C@@]2(C)Oc3c(C)c(O)c4c(O)c(c(/C=N/N5CCN(C6CCCC6)CC5)c(O)c4c3C2=O)NC(=O)/C(C)=C\\C=C\\[C@H](C)[C@H](O)[C@@H](C)[C@@H](O)[C@@H](C)[C@H](OC(C)=O)[C@@H]1C [RIFAPENTINE]", 62.5),
]

* * *

species on record: Rattus norvegicus; experiment: DrugMatrix - Regimen: Daily Repeat; format: toxicity, organism-based, Sprague-Dawley; parameters: regimen Daily Repeat, gender Male, age 6-8 weeks; details: in vivo, po, 0 mg/kg, 120 h, tissue Plasma, route oral GAVAGE, dose level Control, time 5 day, […]
Entries annotated with measured ALKALINE PHOSPHATASE

# compound, ALKALINE PHOSPHATASE
data = [
    ("Clc1ccc(COC(Cn2ccnc2)c2ccc(Cl)cc2Cl)cc1 (centres undefined)", "452 u/L"),
    ("CO[C@H]1/C=C/O[C@@]2(C)Oc3c(C)c(O)c4c(O)c(c(/C=N/N5CCN(C6CCCC6)CC5)c(O)c4c3C2=O)NC(=O)/C(C)=C\\C=C\\[C@H](C)[C@H](O)[C@@H](C)[C@@H](O)[C@@H](C)[C@H](OC(C)=O)[C@@H]1C", "464.33 u/L"),
    ("CC(C)(C)NC(=O)[C@H]1CC[C@H]2[C@@H]3CC[C@H]4NC(=O)C=C[C@]4(C)[C@H]3CC[C@]12C [FINASTERIDE]", "384.33 u/L"),
    ("COc1cc(N)c(Cl)cc1C(=O)NC1CCN(CCCOc2ccc(F)cc2)CC1OC (centres undefined) [CISAPRIDE]", "492.67 u/L"),
]

* * *

organism: Rattus norvegicus; assay: DrugMatrix - Regimen: Daily Repeat; type: toxicity, organism-based, Sprague-Dawley; set-up: regimen Daily Repeat, gender Male, age 6-8 weeks; conditions: in vivo, po, 10 mg/kg, 120 h, tissue Plasma, route oral GAVAGE, dose level Low, time 5 day, vehicle .5 % CMC

# molecule, unit, CREATININE
rows = [
    ("CNCCC(Oc1ccc(C(F)(F)F)cc1)c1ccccc1 (centres undefined) [FLUOXETINE]", "mg/dL", 0.57),
    ("O=C1CN=C(c2ccccc2Cl)c2cc([N+](=O)[O-])ccc2N1 [CLONAZEPAM]", "mg/dL", 0.19),
    ("Fc1ccc(C(c2ccc(F)cc2)N2CCN(C/C=C/c3ccccc3)CC2)cc1 [FLUNARIZINE]", "mg/dL", 0.11),
    ("O=C1C(CC[S+]([O-])c2ccccc2)C(=O)N(c2ccccc2)N1c1ccccc1 (centres undefined) [SULFINPYRAZONE]", "mg/dL", 0.19),
]

* * *

species on record: Rattus norvegicus; experiment: DrugMatrix - Regimen: Daily Repeat; type: toxicity, organism-based, Sprague-Dawley; set-up: regimen Daily Repeat, gender Male, age 6-8 weeks; settings: in vivo, sc, 0 mg/kg, 120 h, tissue Blood, route subcutaneous, dose level Control, time 5 day, […]
Reported ABSOLUTE SEGMENTED NEUTROPHIL by item:

# molecule, unit, ABSOLUTE SEGMENTED NEUTROPHIL
records = [
    ("O=C(Nc1ccc(Br)cc1)c1cc(Br)cc(Br)c1O [TRIBROMSALAN]", "CELLS/uL", 1986.33),
    ("CCC(=O)O[C@]1(C(=O)CCl)[C@@H](C)C[C@H]2[C@@H]3CCC4=CC(=O)C=C[C@]4(C)[C@@]3(F)[C@@H](O)C[C@@]21C [CLOBETASOL PROPIONATE]", "CELLS/uL", 1986.33),
    ("CC(C)(C)CC(C)(C)c1ccc(OCCOCC[N+](C)(C)Cc2ccccc2)cc1.[Cl-] [BENZETHONIUM CHLORIDE]", "CELLS/uL", 1193.17),
    ("Oc1c(Cl)cc(Cl)c(Cl)c1Cc1c(O)c(Cl)cc(Cl)c1Cl [HEXACHLOROPHENE]", "CELLS/uL", 1193.17),
    ("CCN(CC)CCOCCC1=CCC2CC1C2(C)C (stereo not given) [MYRTECAINE]", "CELLS/uL", 1105),
]

* * *

organism: Rattus norvegicus; assay: DrugMatrix - Regimen: Daily Repeat; format: toxicity, organism-based, Sprague-Dawley; design: regimen Daily Repeat, gender Male, age 6-8 weeks; details: in vivo, po, 0 mg/kg, 120 h, tissue Blood, route oral GAVAGE, dose level Control, time 5 day, vehicle 100 % WATER
readout label: ABSOLUTE BASOPHIL (CELLS/uL)

# compound, numeric readout
rows = [
    ("CC(C)NCC(O)c1ccc(NS(C)(=O)=O)cc1 (stereo not drawn)", 0),
    ("CN1[C@@H]2CC[C@H]1C[C@@H](OC(=O)C(CO)c1ccccc1)C2 (stereo partly drawn)", 0),
    ("O.O.O.O.O.O.[Cl-].[Cl-].[Sr+2] [STRONTIUM CHLORIDE HEXAHYDRATE]", 0),
]

* * *

species: Rattus norvegicus; experiment: DrugMatrix - Regimen: Daily Repeat; format: toxicity, organism-based, Sprague-Dawley; set-up: regimen Daily Repeat, gender Male, age 6-8 weeks; details: in vivo, sc, 0 mg/kg, 72 h, tissue Blood, route subcutaneous, dose level Control, time 3 day, […]
readout label: LEUKOCYTE COUNT (x10E3/uL)

# compound, numeric readout
data = [
    ("O=C(Nc1ccc(Br)cc1)c1cc(Br)cc(Br)c1O", 12.7),
    ("CC(C)(C)CC(C)(C)c1ccc(OCCOCC[N+](C)(C)Cc2ccccc2)cc1.[Cl-] [BENZETHONIUM CHLORIDE]", 14.05),
    ("Oc1c(Cl)cc(Cl)c(Cl)c1Cc1c(O)c(Cl)cc(Cl)c1Cl", 14.05),
    ("CCC(=O)O[C@]1(C(=O)CCl)[C@@H](C)C[C@H]2[C@@H]3CCC4=CC(=O)C=C[C@]4(C)[C@@]3(F)[C@@H](O)C[C@@]21C [CLOBETASOL PROPIONATE]", 12.7),
    ("CCN(CC)CCOCCC1=CCC2CC1C2(C)C (stereo not given)", 12),
]

* * *

organism: Rattus norvegicus; assay: DrugMatrix - Regimen: Daily Repeat; type: toxicity, organism-based, Sprague-Dawley; parameters: regimen Daily Repeat, gender Male, age 6-8 weeks; settings: in vivo, sc, 0 mg/kg, 120 h, tissue Plasma, route subcutaneous, dose level Control, time 5 day, […]
Below, each entry is listed with its recorded CHOLESTEROL.

# molecule, unit, CHOLESTEROL
rows = [
    ("Oc1c(Cl)cc(Cl)c(Cl)c1Cc1c(O)c(Cl)cc(Cl)c1Cl", "mg/dL", 76.17),
    ("CCC(=O)O[C@]1(C(=O)CCl)[C@@H](C)C[C@H]2[C@@H]3CCC4=CC(=O)C=C[C@]4(C)[C@@]3(F)[C@@H](O)C[C@@]21C [CLOBETASOL PROPIONATE]", "mg/dL", 65.5),
    ("O=C(Nc1ccc(Br)cc1)c1cc(Br)cc(Br)c1O", "mg/dL", 65.5),
    ("CC(C)(C)CC(C)(C)c1ccc(OCCOCC[N+](C)(C)Cc2ccccc2)cc1.[Cl-] [BENZETHONIUM CHLORIDE]", "mg/dL", 76.17),
    ("CCN(CC)CCOCCC1=CCC2CC1C2(C)C (stereo not given)", "mg/dL", 75.67),
]

* * *

species: Rattus norvegicus; assay: DrugMatrix - Regimen: Daily Repeat; format: toxicity, organism-based, Sprague-Dawley; parameters: regimen Daily Repeat, gender Male, age 6-8 weeks; settings: in vivo, po, 0 mg/kg, 120 h, tissue Blood, route oral GAVAGE, dose level Control, time 5 day, vehicle .5 % CMC
readout label: PLATELET COUNT (x10E3/uL)

# compound, readout label, numeric readout
data = [
    ("O=C1Nc2ccc(Cl)cc2C(c2ccccc2Cl)=NC1O (centres undefined) [LORAZEPAM]", "PLATELET COUNT", 1196),
    ("COc1ccc(C2C(=O)c3ccccc3C2=O)cc1 [ANISINDIONE]", "PLATELET COUNT", 1053.67),
    ("C[C@H]1O[C@@H](n2cc(F)c(=O)[nH]c2=O)[C@H](O)[C@@H]1O [DOXIFLURIDINE]", "PLATELET COUNT", 1097.5),
    ("CNCCC(Oc1ccc(C(F)(F)F)cc1)c1ccccc1 (centres undefined) [FLUOXETINE]", "PLATELET COUNT", 1042.83),
    ("CN(C/C=C/C#CC(C)(C)C)Cc1cccc2ccccc12 [TERBINAFINE]", "PLATELET COUNT", 1155.8),
    ("CCN(CC)CCOc1ccc(/C(=C(/Cl)c2ccccc2)c2ccccc2)cc1 [ENCLOMIPHENE]", "PLATELET COUNT", 1255.5),
    ("CN/C(=N/CCSCc1nc[nH]c1C)NC#N [CIMETIDINE]", "PLATELET COUNT", 1097.5),
    ("CN(C)[C@@H]1C(O)=C(C(N)=O)C(=O)[C@@]2(O)C(O)=C3C(=O)c4c(O)ccc(Cl)c4[C@@](C)(O)[C@H]3C[C@@H]12 [CHLORTETRACYCLINE]", "PLATELET COUNT", 1229),
    ("O=C1C(CC[S+]([O-])c2ccccc2)C(=O)N(c2ccccc2)N1c1ccccc1 (centres undefined) [SULFINPYRAZONE]", "PLATELET COUNT", 1196),
]
